Target: T1, ULBP3-Fc (R&D Systems) (human, UniProt Q9BZM4 30-217)
T1 construct: not shown: Fc of the bought reagent
T1 sequence (looked up): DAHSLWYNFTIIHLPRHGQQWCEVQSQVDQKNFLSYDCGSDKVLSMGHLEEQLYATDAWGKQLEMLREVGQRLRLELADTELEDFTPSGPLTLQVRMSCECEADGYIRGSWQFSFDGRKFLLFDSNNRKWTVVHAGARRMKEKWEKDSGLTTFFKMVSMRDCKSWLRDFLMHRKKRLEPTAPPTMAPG
Experiment: ELISA, ligand-Fc coated, biotinylated NKG2D titrated
EXPERIMENTAL_ENDPOINT: binding result

[[record]]
binder = "double Y152A plus Y199A mutant NKG2D ectodomain (His-avitag, biotinylated) (receptor, not shown: N-terminal His-avitag) EPHHHHHHGLNDIFEAQKIEWHENSLFNQEVQIPLTESYCGPCPKNWICYKNNCYQFFDESKNWYESQASCMSQNASLLKVYSKEDQDLLKLVKSAHWMGLVHIPTNGSWQWEDGSILSPNLLTIIEMQKGDCALYASSFKGAIENCSTPNTYICMQRTV"
test_result = "no binding"

[[record]]
binder = "Y152A mutant NKG2D ectodomain (His-avitag, biotinylated) (receptor, also called Y152A non-natural NKG2D receptor; not shown: N-terminal His-avitag) EPHHHHHHGLNDIFEAQKIEWHENSLFNQEVQIPLTESYCGPCPKNWICYKNNCYQFFDESKNWYESQASCMSQNASLLKVYSKEDQDLLKLVKSAHWMGLVHIPTNGSWQWEDGSILSPNLLTIIEMQKGDCALYASSFKGYIENCSTPNTYICMQRTV"
test_result = "no binding"

[[record]]
binder = "Y199A mutant NKG2D ectodomain (His-avitag, biotinylated) (receptor, not shown: N-terminal His-avitag) EPHHHHHHGLNDIFEAQKIEWHENSLFNQEVQIPLTESYCGPCPKNWICYKNNCYQFFDESKNWYESQASCMSQNASLLKVYSKEDQDLLKLVKSYHWMGLVHIPTNGSWQWEDGSILSPNLLTIIEMQKGDCALYASSFKGAIENCSTPNTYICMQRTV"
test_result = "no binding"

[[record]]
binder = "His-avitag natural NKG2D ectodomain, biotinylated (receptor, also called natural form of the ectodomain of NKG2D) EPHHHHHHGLNDIFEAQKIEWHENSLFNQEVQIPLTESYCGPCPKNWICYKNNCYQFFDESKNWYESQASCMSQNASLLKVYSKEDQDLLKLVKSYHWMGLVHIPTNGSWQWEDGSILSPNLLTIIEMQKGDCALYASSFKGYIENCSTPNTYICMQRTV"
test_result = "binds"

